# System: B6C3F1 mice, Lewis lung carcinoma iv, survival T/C
# Assay Details: NCI In Vivo Anticancer Drug Screen. Data for tumor model Lewis Lung Carcinoma (intravenous) in B6C3F1 mice
# Assay Conditions: endpoint: median survival time; dose: 0.78 mg/kg/injection; schedule: Q01DX009 (ip); vehicle: saline; higher = longer survival
Toxic doses and inconclusive results are not listed.
Kindly state T/C for each of the entries shown.

Provide reported T/C for each item, in the same order as listed.
1. O=CC(O)C(O)C(O)C(O)C(=O)O.[NH-]C1CCCCC1[NH-].[Pt+2] (stereo not given)
2. ClCCCN1CCCCC1CCl (stereo not given)
3. COc1cc2c(c(OC)c1OC)-c1ccc(OC)c(=O)cc1[C@@H](NC(C)=O)CC2

1: 93 % of control; 2: 101 % of control; 3: 104 % of control

Required: T/C, one value per compound below.
1. OCCN1CCN(CC/C=C2/c3ccccc3Sc3ccc(C(F)(F)F)cc32)CC1
2. NC(=O)c1csc(C2OC(CO)C(O)C2O)n1 (stereo not given)

1: 102 % of control; 2: 94 % of control
